Conditions: 298.15 K; 101.33 kPa; Liquid; Capillary tube (Ostwald / Ubbelohde) method
property: viscosity (mPa·s)

>>> experimental_value("NCCO")
18.95
>>> experimental_value("ClCCCl")
0.7804
>>> experimental_value("C1COCCO1")
1.178
>>> experimental_value("NCCN")
1.276

* * *

Conditions: 318.15 K; 101.33 kPa; Liquid; Capillary tube (Ostwald / Ubbelohde) method
property: viscosity (mPa·s)

>>> experimental_value("ClCCCl [1,2-dichloroethane]")
0.5719
>>> experimental_value("C1COCCO1 [1,4-dioxane]")
0.8896
>>> experimental_value("NCCN [ethane-1,2-diamine]")
0.9445
>>> experimental_value("NCCO [2-aminoethan-1-ol]")
7.913
